Prothrombin (Homo sapiens) measurements of pIC50, listed per entry.
pIC50: −log10 of the molar value.
property measured: pIC50

molecule	measured value
NC1CCC(CNC(=O)[C@@H]2CCCN2C(=O)C(Cc2ccccc2)c2ccccc2)CC1 (stereo not given in full)	7.24
CCCCC(CC(=O)N1CCC[C@H]1C(=O)NCC1CCC(N)CC1)c1ccccc1 (stereo not given in full)	8.30
NC1CCC(CNC(=O)[C@@H]2CCCN2C(=O)C2CC2(c2ccccc2)c2ccccc2)CC1 (stereo not given in full)	6.72
NC1CCC(CNC(=O)[C@@H]2CCCN2C(=O)C2CC(=O)N3CCc4ccccc4C23)CC1 (stereo not given in full)	7.05
COc1cc(CC(=O)N2CCC[C@H]2C(=O)NCC2CCC(N)CC2)cc(OC)c1OC (stereo not given in full)	7.30
COc1cc(C(O)C(=O)N2CCC[C@H]2C(=O)NCC2CCC(N)CC2)ccc1O (stereo not given in full)	7.96
NC1CCC(CNC(=O)[C@@H]2CCCN2C(=O)C23CC4CC(CC(C4)C2)C3)CC1 (stereo not given in full)	6.92
NC1CCC(CNC(=O)[C@@H]2CCCN2C(=O)C(Cc2ccc(O)cc2)c2ccccc2)CC1 (stereo not given in full)	8.00
N[C@H]1CC[C@H](CNC(=O)[C@@H]2CCCN2C(=O)C2(O)c3ccccc3-c3ccccc32)CC1	8.40
N#C/C(=C\c1ccccc1)C(=O)N1CCC[C@H]1C(=O)NCC1CCC(N)CC1 (stereo not given in full)	6.85

====

target: Serine protease 1 (Homo sapiens, UniProt P07477)
Sequence (P07477 whole entry): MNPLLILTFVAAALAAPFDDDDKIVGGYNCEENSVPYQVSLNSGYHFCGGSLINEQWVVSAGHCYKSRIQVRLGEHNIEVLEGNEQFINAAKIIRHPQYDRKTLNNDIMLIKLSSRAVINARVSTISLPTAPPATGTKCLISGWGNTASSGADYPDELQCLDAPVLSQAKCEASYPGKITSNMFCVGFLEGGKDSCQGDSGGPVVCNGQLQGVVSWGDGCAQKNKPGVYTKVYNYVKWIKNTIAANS
pKi: −log10 of the molar value.
property measured: pKi

sample smiles	measured value
N[C@H]1CC[C@H](CNC(=O)[C@@H]2CCCN2C(=O)C2(O)c3ccccc3-c3ccccc32)CC1	6.07

====

Prothrombin (Homo sapiens) measurements of Ki, listed per entry.

compound	Ki (nM)
CN[C@H](Cc1ccccc1)C(=O)N1CCC[C@H]1C(=O)NC[C@H]1CC[C@H](N)CC1	4.9
NC1CCC(CNC(=O)[C@@H]2CCCN2C(=O)C(Cc2ccc(O)cc2)c2ccccc2)CC1 (stereo partly drawn)	2.5
COc1cc(C(O)C(=O)N2CCC[C@H]2C(=O)NCC2CCC(N)CC2)ccc1O (stereo partly drawn)	2.5

Where these numbers come from: ChEMBL document CHEMBL1131597
